- ASSAY NAME: In vitro human microsomal stability assay
- Type: in vitro ADME
- ASSAY CONDITIONS: human, microsomes, 0.5 h, 0.5 μM, pH 7.4
MEASUREMENT LABEL: HUMAN MICROSOMAL STABILITY (% REMAINING AFTER 30 MINUTES) (%)
Give the number; % is assumed, so skip it.

Worked examples follow.
{"columns": ["MOLECULE", "TEST VALUE"],
 "data": [
  ["OC(c1ccccn1)C1(C2CCC(F)(F)CC2)CCC1 (stereo not drawn)", 55],
  ["OC(CC1(c2ccc(C(F)(F)F)cc2)CCC1)c1ccccn1 (stereo not drawn)", 44],
  ["N[C@H]1CCC[C@H]1[C@H](O)C1(c2ccc(Cl)c(Cl)c2)CCC1", 73],
  ["O=C1CC(c2ccnc(C(F)(F)F)c2)(C(O)c2ccccn2)C1 (stereo not drawn)", 80],
  ["OC(C1CCc2cccnc21)C1(c2ccc(OC(F)(F)F)cc2)CCC1 (stereo not drawn) [Example 175]", 29]
]}

In plain terms, OC(c1ccccn1)C1(Cc2cccc(F)c2)CCC1 (stereo not drawn) has a documented HUMAN MICROSOMAL STABILITY (% REMAINING AFTER 30 MINUTES) of 1.1

In plain terms, OC1CC(c2ccc(OC(F)(F)F)cc2)(C(O)c2ccccn2)C1 (single isomer, unassigned) [Example 132] has a documented HUMAN MICROSOMAL STABILITY (% REMAINING AFTER 30 MINUTES) of 81

In plain terms, OC(c1ccccn1)C1(C2=CCCOC2)CCC1 (single isomer, unassigned) has a documented HUMAN MICROSOMAL STABILITY (% REMAINING AFTER 30 MINUTES) of 40

In plain terms, O=C1CC(c2ccc(F)c(Cl)c2)([C@H](O)c2ccccn2)C1 (single isomer, unassigned) has a documented HUMAN MICROSOMAL STABILITY (% REMAINING AFTER 30 MINUTES) of 66

In plain terms, CC(c1ccc(Cl)cc1)C1(C(O)c2ccccn2)CCC1 (stereo not drawn) has a documented HUMAN MICROSOMAL STABILITY (% REMAINING AFTER 30 MINUTES) of 15

---

- TESTED ON: human TRPV3 (Homo sapiens)
- Construct: expressed in transfected cells
- ASSAY NAME: In vitro antagonism of recombinant human TRPV3 activation (FLIPR Tetra calcium assay)
- Format: cell-based
- ASSAY CONDITIONS: HEK293 cells stably expressing human TRPV3; agonist 2-APB at 80 μM; actual measured value shown parenthetically; in most cases average of at least two runs; read-out: IC50
MEASUREMENT LABEL: IC50

{"columns": ["COMPOUND", "TESTED ON", "IC50"],
 "data": [
  ["OC1CC(c2ccc(Cl)c(Cl)c2)(C(O)c2ncccn2)C1 (single isomer, unassigned) [Example 313]", "human TRPV3 (Homo sapiens)", "> 20 µM"],
  ["COc1ccc(C2(C(O)c3ccccn3)CCOC2)cc1OC (centres unmarked)", "human TRPV3 (Homo sapiens)", "> 20 µM"],
  ["OC(c1ncccn1)C1(c2ccc(F)cc2)CCC1 (centres unmarked)", "human TRPV3 (Homo sapiens)", "> 20 µM"],
  ["COc1ccc(C2(C(O)c3ccccn3)CCOC2)cc1 (centres unmarked)", "human TRPV3 (Homo sapiens)", "> 20 µM"]
]}

Continue with the compound presented below.
In plain terms, OC(C1CCc2cccnc21)C1(c2ccccc2OC(F)(F)F)CCC1 (centres unmarked) has a documented IC50 of > 20 µM

---

- TESTED ON: human TRPV3 (Homo sapiens, UniProt Q8NET8)
- Construct: expressed in transfected cells
- Sequence (Q8NET8 whole entry): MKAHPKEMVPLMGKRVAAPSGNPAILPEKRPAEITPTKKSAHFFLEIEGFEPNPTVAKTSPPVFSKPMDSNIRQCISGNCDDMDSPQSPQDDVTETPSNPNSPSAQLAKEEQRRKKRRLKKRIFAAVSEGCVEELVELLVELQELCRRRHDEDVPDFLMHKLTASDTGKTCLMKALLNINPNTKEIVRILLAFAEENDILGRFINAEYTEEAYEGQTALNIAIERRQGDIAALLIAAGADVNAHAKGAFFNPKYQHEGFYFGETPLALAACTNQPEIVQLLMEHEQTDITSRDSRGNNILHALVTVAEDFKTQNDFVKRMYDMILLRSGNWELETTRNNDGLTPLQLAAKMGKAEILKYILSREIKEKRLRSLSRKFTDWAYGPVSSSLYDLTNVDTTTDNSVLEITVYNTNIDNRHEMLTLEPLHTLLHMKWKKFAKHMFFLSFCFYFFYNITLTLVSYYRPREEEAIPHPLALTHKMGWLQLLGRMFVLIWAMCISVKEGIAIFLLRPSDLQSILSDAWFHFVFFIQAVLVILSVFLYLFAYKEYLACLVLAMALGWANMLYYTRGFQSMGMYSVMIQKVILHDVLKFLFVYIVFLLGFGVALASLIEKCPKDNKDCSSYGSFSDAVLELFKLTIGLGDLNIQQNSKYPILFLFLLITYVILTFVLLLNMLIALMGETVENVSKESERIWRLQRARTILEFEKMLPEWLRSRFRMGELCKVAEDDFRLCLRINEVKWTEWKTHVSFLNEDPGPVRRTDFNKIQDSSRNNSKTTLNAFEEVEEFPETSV
- ASSAY NAME: In vitro antagonism of recombinant human TRPV3 activation (FLIPR Tetra calcium assay)
- Assay type: cell-based
- ASSAY CONDITIONS: HEK293 cells stably expressing human TRPV3; agonist 2-APB at 80 μM; actual measured value shown parenthetically; in most cases average of at least two runs; read-out: IC50
MEASUREMENT LABEL: IC50

Worked examples follow.
{"columns": ["COMPOUND", "MEASUREMENT LABEL", "TEST VALUE"],
 "data": [
  ["OC(C1CCCc2cccnc21)C1(c2ccc(Cl)c(Cl)c2)CCC1 (single isomer, unassigned) [Example 182]", "IC50", "> 20 µM"],
  ["OC(C1CCc2cccnc21)C1(c2ccc(OC(F)(F)F)cc2)CCC1 (stereo not drawn) [Example 175]", "IC50", "> 20 µM"]
]}

Continue with the compound presented below.
In plain terms, OC(c1ccccn1)C1(c2ccnc(C(F)(F)F)c2)CC2(C1)OCCO2 (stereo not drawn) has a documented IC50 of > 20 µM

---

Reported RAT MICROSOMAL STABILITY (% REMAINING AFTER 30 MINUTES) values for a set of compounds
- ASSAY NAME: In vitro rat microsomal stability assay
- Format: in vitro ADME, rat (Sprague-Dawley)
- ASSAY CONDITIONS: Sprague-Dawley, rat, microsomes, 0.5 h, 0.5 μM, pH 7.4
Give the number; % is assumed, so skip it.

Worked examples follow.
{"columns": ["COMPOUND", "U", "TEST VALUE"],
 "data": [
  ["Nc1cccnc1C(O)C1(c2ccc(C(F)(F)F)cc2)CCC1 (stereo not shown)", "%", 1.1],
  ["OC(c1ccccn1)C1(c2ccc(Cl)c(Cl)c2)CC(F)(F)C1 (stereo not shown)", "%", 16],
  ["O=C1CC(c2cccc(OC(F)(F)F)c2)([C@H](O)c2ccccn2)C1 (single isomer, unassigned)", "%", 55],
  ["CN1CC(c2ccc(C(F)(F)F)cc2)(C(O)c2ccccn2)C1 (stereo not shown)", "%", 76],
  ["Nc1cccnc1C(O)C1(c2ccc(OC(F)(F)F)cc2)CCC1 (stereo not shown)", "%", 0.18],
  ["CC1(O)CC(c2ccc(C(F)(F)F)cc2)(C(O)c2ccccn2)C1 (single isomer, unassigned) [Example 232]", "%", 67],
  ["N[C@@H]1CCC[C@H]1[C@@H](O)C1(c2ccc(Cl)c(Cl)c2)CCC1", "%", 67],
  ["OC(c1ccccn1)C1(C2CCCOC2)CCC1 (stereo not shown)", "%", 0.054],
  ["O=C1CC(c2cccc(C(F)(F)F)c2)(C(O)c2ccccn2)C1 (stereo not shown)", "%", 72],
  ["Cc1ccccc1C(C)C1(C(O)c2ccccn2)CCC1 (stereo not shown)", "%", 0.02]
]}

In plain terms, OC(c1ccccn1)C1(c2ccc(F)c(F)c2)CCCO1 (single isomer, unassigned) [Example 109] has a documented RAT MICROSOMAL STABILITY (% REMAINING AFTER 30 MINUTES) of 0.74

In plain terms, O[C@H](c1ncccn1)C1(c2ccc(C(F)(F)F)cc2)CCC1 has a documented RAT MICROSOMAL STABILITY (% REMAINING AFTER 30 MINUTES) of 21

In plain terms, O[C@H](c1ccccn1)C1(c2cc(C(F)(F)F)ccn2)CCC1 has a documented RAT MICROSOMAL STABILITY (% REMAINING AFTER 30 MINUTES) of 11

In plain terms, OC(c1ccccn1)C1(c2cccc(OC(F)(F)F)c2)CCC1 (stereo not shown) has a documented RAT MICROSOMAL STABILITY (% REMAINING AFTER 30 MINUTES) of 0.80

In plain terms, O[C@@H](c1ncccn1)C1(c2ccc(C(F)(F)F)cc2)CCC1 has a documented RAT MICROSOMAL STABILITY (% REMAINING AFTER 30 MINUTES) of 40

In plain terms, OC(c1ccccn1)C1(c2ccc(F)c(C(F)(F)F)c2)CCC1 (stereo not shown) has a documented RAT MICROSOMAL STABILITY (% REMAINING AFTER 30 MINUTES) of 1.2

---

- ASSAY NAME: In vitro human microsomal stability assay
- Assay type: in vitro ADME
- ASSAY CONDITIONS: human, microsomes, 0.5 h, 0.5 μM, pH 7.4
MEASUREMENT LABEL: HUMAN MICROSOMAL STABILITY (% REMAINING AFTER 30 MINUTES) (%)
Give the number; % is assumed, so skip it.

Worked examples follow.
{"columns": ["COMPOUND", "U", "TEST VALUE"],
 "data": [
  ["Cc1ccccc1CC1(C(O)c2ccccn2)CCC1 (stereo not shown)", "%", 0.21],
  ["O=C1CC(c2ccc(F)c(Cl)c2)(C(O)c2ccccn2)C1 (stereo not shown)", "%", 70],
  ["COC1(OC)CC(c2ccc(OC(F)(F)F)cc2)(C(O)c2ccccn2)C1 (stereo not shown)", "%", 46],
  ["OC(C1CCc2cccnc21)C1(c2ccc(F)c(F)c2)CCC1 (stereo not shown) [Example 172]", "%", 2.4],
  ["OC(c1ccccn1)C1(C2=CCC(F)(F)CC2)CCC1 (stereo not shown)", "%", 12],
  ["Cc1ccccc1C1(C(O)c2ccccn2)CCCO1 (stereo not shown)", "%", 35]
]}

In plain terms, OC(c1ccccn1)C1(c2ccc(OC(F)(F)F)cc2)CC2(C1)OCCO2 (stereo not shown) has a documented HUMAN MICROSOMAL STABILITY (% REMAINING AFTER 30 MINUTES) of 73
